ASSAYED TARGET: TLR7/NFKb HEK cells (Homo sapiens)
PROCEDURE TEXT: HEK Cell Assay (TLR7/NFKb reporter, Steady-Glo luciferase readout)
TEST CONDITIONS: 30 min compound preincubation, then R*48 agonist for 5 hours, read-out: Potency
In this section, each of the molecules is paired with its reported IC50.
MEASURED ENDPOINT: IC50

MOLECULE	MEASURED ENDPOINT	READING
CCN(CC)CCNCC1CCN(c2ccnc3ccc(C(F)(F)F)cc23)CC1	IC50	1 to 10 µM
CCN(CC)CC(=O)NCC1CCN(c2ccc(C#N)c3ncncc23)CC1	IC50	1 to 10 µM
CC(C(=O)NC1CN(c2ccc(C#N)c3nccnc23)CC(F)(F)C1)N1CCOCC1 (stereo not drawn)	IC50	> 10 µM
COCCN[C@H]1C[C@@H](C(F)(F)F)CN(c2ccc(C#N)c3nccnc23)C1 (relative stereo)	IC50	1 to 10 µM
COc1ccc(N2C[C@@H](C)C[C@@H](N)C2)c2cccnc12	IC50	< 1 µM
C[C@H]1C[C@@H](NC(=O)CC2CC2(F)F)CN(c2ccc(C(F)(F)F)c3nccnc23)C1 (stereo partly drawn)	IC50	< 1 µM
C[C@H]1C[C@@H](NC(=O)C2CC(F)(F)C2)CN(c2ccc(C(F)(F)F)c3nccnc23)C1	IC50	1 to 10 µM
C[C@H]1C[C@@H](NC(=O)CC2CC2(F)F)CN(c2ccc(C(F)(F)F)c3ncccc23)C1 (stereo partly drawn)	IC50	< 1 µM
CNC(=O)[C@@H]1C[C@@H](C)CN(c2ccc(C#N)c3nccnc23)C1 (relative stereo)	IC50	1 to 10 µM
CN(C)CC(=O)N[C@H]1C[C@@H](C2CC2)CN(c2ccc(C#N)c3nccnc23)C1 (relative stereo)	IC50	1 to 10 µM
CC(C)[C@H](O)C(=O)N[C@@H]1C[C@H](C)CN(c2ccc(C#N)c3nccnc23)C1	IC50	< 1 µM
C[C@H]1C[C@@H](NC(=O)CN2CCCN(C)CC2)CN(c2ccc(C(F)(F)F)c3ncccc23)C1	IC50	< 1 µM

---

ASSAYED TARGET: TLR7/NFKb HEK cells (Homo sapiens, UniProt Q9NYK1)
Sequence (Q9NYK1 27-1049): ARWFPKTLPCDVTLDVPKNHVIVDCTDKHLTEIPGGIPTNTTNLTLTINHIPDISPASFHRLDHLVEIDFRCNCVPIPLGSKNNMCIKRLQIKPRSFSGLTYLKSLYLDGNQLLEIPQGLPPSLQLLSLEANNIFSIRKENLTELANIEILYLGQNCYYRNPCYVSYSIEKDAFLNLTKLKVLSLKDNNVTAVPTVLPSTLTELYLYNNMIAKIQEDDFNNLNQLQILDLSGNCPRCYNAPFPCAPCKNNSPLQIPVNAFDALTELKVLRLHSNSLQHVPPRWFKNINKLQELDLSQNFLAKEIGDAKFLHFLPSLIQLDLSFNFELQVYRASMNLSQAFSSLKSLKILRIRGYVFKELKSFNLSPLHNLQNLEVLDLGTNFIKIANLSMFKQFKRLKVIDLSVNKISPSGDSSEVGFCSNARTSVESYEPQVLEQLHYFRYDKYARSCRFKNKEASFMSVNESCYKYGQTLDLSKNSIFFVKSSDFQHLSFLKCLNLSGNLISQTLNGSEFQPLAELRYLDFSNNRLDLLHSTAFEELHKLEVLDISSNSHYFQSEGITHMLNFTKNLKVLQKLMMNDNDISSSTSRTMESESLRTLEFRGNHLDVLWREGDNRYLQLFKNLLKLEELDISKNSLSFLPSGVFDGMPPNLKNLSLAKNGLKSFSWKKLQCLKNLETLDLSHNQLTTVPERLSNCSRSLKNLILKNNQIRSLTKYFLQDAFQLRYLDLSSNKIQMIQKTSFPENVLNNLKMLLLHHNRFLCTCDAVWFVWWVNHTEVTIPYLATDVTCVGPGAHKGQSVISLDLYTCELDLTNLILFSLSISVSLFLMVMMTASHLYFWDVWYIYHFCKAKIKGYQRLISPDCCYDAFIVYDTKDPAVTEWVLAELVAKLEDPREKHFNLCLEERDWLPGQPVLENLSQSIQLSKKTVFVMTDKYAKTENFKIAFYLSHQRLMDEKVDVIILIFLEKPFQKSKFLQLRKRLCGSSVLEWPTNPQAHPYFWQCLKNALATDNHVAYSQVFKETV
PROCEDURE TEXT: HEK Cell Assay (TLR7/NFKb reporter, Steady-Glo luciferase readout)
TEST CONDITIONS: 30 min compound preincubation, then R*48 agonist for 5 hours, read-out: Potency
pIC50: −log10 of the molar value.
In this section, each of the molecules is paired with its reported pIC50.
MEASURED ENDPOINT: pIC50

MOLECULE	ASSAYED TARGET	READING
O=C(CN1CCCCC1)NCC1CCN(c2ccnc3nccnc23)CC1	TLR7/NFKb HEK cells (Homo sapiens, UniProt Q9NYK1)	5.00 to 6.00
C[C@H]1C[C@@H](NC(=O)CN2CCOCC2)CN(c2ccc(Cl)c3ncccc23)C1	TLR7/NFKb HEK cells (Homo sapiens, UniProt Q9NYK1)	> 6.00
C[C@H]1C[C@@H](NC(=O)C2CC(F)(F)C2)CN(c2ccc(C#N)c3nccnc23)C1	TLR7/NFKb HEK cells (Homo sapiens, UniProt Q9NYK1)	> 6.00
C[C@H]1C[C@@H](NC2CCN(C)C2=O)CN(c2ccc(C(F)(F)F)c3ncccc23)C1 (single isomer, unassigned) [Compound 237]	TLR7/NFKb HEK cells (Homo sapiens, UniProt Q9NYK1)	> 6.00
CN[C@@H]1C[C@H](C)CN(c2ccnc3nccnc23)C1	TLR7/NFKb HEK cells (Homo sapiens, UniProt Q9NYK1)	< 5.00
CC1(C)C[C@@H](N)CN(c2ccnc3nccnc23)C1	TLR7/NFKb HEK cells (Homo sapiens, UniProt Q9NYK1)	5.00 to 6.00
C[C@H]1C[C@@H](NC(=O)C(N)C2CC2)CN(c2ccc(C(F)(F)F)c3nccnc23)C1 (stereo partly drawn)	TLR7/NFKb HEK cells (Homo sapiens, UniProt Q9NYK1)	> 6.00
O=C(CN1CCOCC1)N[C@H]1C[C@@H](C2CC2)CN(c2ccc(F)c3ncccc23)C1 (racemic)	TLR7/NFKb HEK cells (Homo sapiens, UniProt Q9NYK1)	< 5.00
N#Cc1ccc(N2C[C@H](NC(=O)N3C[C@@H](F)[C@@H](F)C3)C[C@H](C(F)(F)F)C2)c2cccnc12	TLR7/NFKb HEK cells (Homo sapiens, UniProt Q9NYK1)	5.00 to 6.00
C[C@H]1C[C@@H](NC(=O)CN(C)C)CN(c2ccc(C#N)c3ncncc23)C1	TLR7/NFKb HEK cells (Homo sapiens, UniProt Q9NYK1)	> 6.00
C[C@H]1C[C@@H](NC(=O)CC(O)C(C)(C)C)CN(c2ccnc3nccnc23)C1 (single isomer, unassigned) [Compound 148]	TLR7/NFKb HEK cells (Homo sapiens, UniProt Q9NYK1)	< 5.00
CC1(C)C[C@@H](NC(=O)CC(F)(F)F)CN(c2ccc(C#N)c3nccnc23)C1	TLR7/NFKb HEK cells (Homo sapiens, UniProt Q9NYK1)	5.00 to 6.00
